- target of assay: Adenosine receptors; A1 & A3 (Homo sapiens) (UniProt P30542+P0DMS8)
- Sequence (P0DMS8 whole entry, looked up): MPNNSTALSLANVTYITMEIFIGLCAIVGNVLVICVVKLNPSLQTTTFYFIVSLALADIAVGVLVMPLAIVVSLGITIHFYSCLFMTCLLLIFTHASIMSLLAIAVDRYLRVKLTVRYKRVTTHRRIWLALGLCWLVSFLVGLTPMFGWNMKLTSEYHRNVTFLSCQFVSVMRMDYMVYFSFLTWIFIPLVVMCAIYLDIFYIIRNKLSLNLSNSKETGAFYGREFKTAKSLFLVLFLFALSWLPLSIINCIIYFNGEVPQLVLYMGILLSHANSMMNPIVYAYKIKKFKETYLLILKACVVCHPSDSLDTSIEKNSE
- Sequence (P30542 whole entry, looked up): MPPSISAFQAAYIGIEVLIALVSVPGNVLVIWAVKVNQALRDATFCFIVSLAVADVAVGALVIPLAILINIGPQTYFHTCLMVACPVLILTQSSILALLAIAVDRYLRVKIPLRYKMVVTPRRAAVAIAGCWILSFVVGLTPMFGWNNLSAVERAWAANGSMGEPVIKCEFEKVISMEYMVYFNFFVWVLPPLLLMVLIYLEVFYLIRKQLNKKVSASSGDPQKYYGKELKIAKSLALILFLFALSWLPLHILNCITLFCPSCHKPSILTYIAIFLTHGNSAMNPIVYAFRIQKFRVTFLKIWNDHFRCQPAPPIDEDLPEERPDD
- test protocol: Selectivity for human adenosine A3 receptor over human adenosine A1 receptor
- Format: protein assay
property: Ratio Ki

Sample records with Ratio Ki:
CONc1nc(C#CCCCC#N)nc2c1ncn2[C@@H]1O[C@H](CO)[C@@H](O)[C@H]1O : 69
CCCCCc1ccc(C#Cc2nc(NOC)c3ncn([C@@H]4O[C@H](C(=O)NC)[C@@H](O)[C@H]4O)c3n2)cc1 : 874
CCCCC#Cc1nc(NOC)c2ncn([C@@H]3O[C@H](CO)[C@@H](O)[C@H]3O)c2n1 : 35

[A] CONc1nc(C#Cc2ccc(CC#N)cc2)nc2c1ncn2[C@@H]1O[C@H](CO)[C@@H](O)[C@H]1O
[B] CNC(=O)[C@H]1O[C@@H](n2cnc3c(NOC)nc(C#Cc4ccccc4)nc32)[C@H](O)[C@@H]1O
[C] CCCCCc1ccc(C#Cc2nc(NOC)c3ncn([C@@H]4O[C@H](C(=O)NCC)[C@@H](O)[C@H]4O)c3n2)cc1
Input: Would you mind ranking these molecules by ascending Ratio Ki? Provide the ranking by listing each label in its place in the requested order.
Output: C, A, B

[A] CONc1nc(C#CCC(C)O)nc2c1ncn2[C@@H]1O[C@H](CO)[C@@H](O)[C@H]1O (stereo partly drawn)
[B] CCNC(=O)[C@H]1O[C@@H](n2cnc3c(NOC)nc(C#Cc4ccc(F)cc4)nc32)[C@H](O)[C@@H]1O
[C] CCNC(=O)[C@H]1O[C@@H](n2cnc3c(N)nc(C#Cc4ccccc4)nc32)[C@H](O)[C@@H]1O
[D] CONc1nc(C#Cc2ccc(C(N)=O)cc2)nc2c1ncn2[C@@H]1O[C@H](CO)[C@@H](O)[C@H]1O
[E] CONc1nc(C#Cc2cccnc2)nc2c1ncn2[C@@H]1O[C@H](CO)[C@@H](O)[C@H]1O
Input: Arrange these 5 molecules in increasing order of Ratio Ki. Respond with the label ranking, as requested.
Output: A, E, C, D, B
(A: 18, E: 32, C: 90, D: 173, B: 587)

[P] CCNC(=O)[C@H]1O[C@@H](n2cnc3c(NOC)nc(I)nc32)[C@H](O)[C@@H]1O
[Q] CCNC(=O)[C@H]1O[C@@H](n2cnc3c(NOC)nc(C#Cc4ccccn4)nc32)[C@H](O)[C@@H]1O
[R] C#Cc1nc(NOC)c2ncn([C@@H]3O[C@H](CO)[C@@H](O)[C@H]3O)c2n1
Input: Arrange these 3 molecules in increasing order of Ratio Ki. Please list the labels in the order you were asked to rank them.
Output: R, P, Q

[a] CONc1nc(C#C[Si](C)(C)C)nc2c1ncn2[C@@H]1O[C@H](CO)[C@@H](O)[C@H]1O
[b] CNC(=O)[C@H]1O[C@@H](n2cnc3c(NOC)nc(C#Cc4ccc(C)cc4)nc32)[C@H](O)[C@@H]1O
[c] CNC(=O)[C@H]1O[C@@H](n2cnc3c(NOC)nc(C#Cc4ccc(C(C)=O)cc4)nc32)[C@H](O)[C@@H]1O
[d] Nc1nc(C#Cc2ccccc2)nc2c1ncn2[C@@H]1O[C@H](CO)[C@@H](O)[C@H]1O
[e] CONc1nc(C#Cc2cccc(C(F)(F)F)c2)nc2c1ncn2[C@@H]1O[C@H](CO)[C@@H](O)[C@H]1O
Input: hey, can you rank those molecules up there by Ratio Ki? biggest number first please Your task in answering is to list the labels in the requested order.
Output: c, b, e, d, a
(c: 21500, b: 3600, e: 106, d: 24, a: 1.7)
